// provenance: paper PMC4336329

# MEASURED_ON: human ether-à-go-go-related gene (hERG) potassium channel (human, UniProt Q12809)
# Sequence (Q12809 whole entry, looked up): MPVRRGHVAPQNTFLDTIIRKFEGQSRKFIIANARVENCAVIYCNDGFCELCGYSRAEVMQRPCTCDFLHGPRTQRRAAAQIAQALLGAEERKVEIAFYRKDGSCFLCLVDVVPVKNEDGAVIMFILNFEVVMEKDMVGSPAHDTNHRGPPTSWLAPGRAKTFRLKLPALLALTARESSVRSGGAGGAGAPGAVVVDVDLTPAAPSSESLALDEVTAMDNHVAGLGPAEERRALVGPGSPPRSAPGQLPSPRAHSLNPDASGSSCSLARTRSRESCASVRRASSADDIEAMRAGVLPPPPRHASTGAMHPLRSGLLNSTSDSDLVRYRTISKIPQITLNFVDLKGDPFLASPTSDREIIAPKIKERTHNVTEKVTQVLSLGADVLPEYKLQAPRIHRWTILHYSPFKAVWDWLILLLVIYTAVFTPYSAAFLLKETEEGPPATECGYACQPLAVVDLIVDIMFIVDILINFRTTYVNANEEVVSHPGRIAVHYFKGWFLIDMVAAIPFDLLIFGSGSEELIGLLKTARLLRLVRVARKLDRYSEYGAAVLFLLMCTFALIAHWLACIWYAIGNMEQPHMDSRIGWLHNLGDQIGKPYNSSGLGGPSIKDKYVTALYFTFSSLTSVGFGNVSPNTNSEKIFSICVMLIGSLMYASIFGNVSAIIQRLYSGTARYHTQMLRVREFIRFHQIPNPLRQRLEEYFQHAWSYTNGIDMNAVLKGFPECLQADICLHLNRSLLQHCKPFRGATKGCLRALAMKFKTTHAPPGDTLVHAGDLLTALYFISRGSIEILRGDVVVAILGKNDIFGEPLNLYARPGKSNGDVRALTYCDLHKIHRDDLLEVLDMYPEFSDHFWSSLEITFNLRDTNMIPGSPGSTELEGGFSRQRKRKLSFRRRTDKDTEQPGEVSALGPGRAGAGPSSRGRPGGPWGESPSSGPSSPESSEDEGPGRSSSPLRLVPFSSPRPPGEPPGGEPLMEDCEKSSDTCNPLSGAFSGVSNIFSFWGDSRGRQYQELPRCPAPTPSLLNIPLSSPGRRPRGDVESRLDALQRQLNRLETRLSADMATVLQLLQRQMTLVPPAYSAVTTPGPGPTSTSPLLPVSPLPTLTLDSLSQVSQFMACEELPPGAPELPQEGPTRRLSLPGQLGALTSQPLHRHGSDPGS
# PROTOCOL_TEXT: primary screen, population patch clamp on CHO cells stably expressing hERG; higher = less effect of the substance;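 also: peak tail current of the secondary pulse compared with the same well before compound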
# Protocol: Briefly, Chinese hamster ovary (CHO) cells stably expressing the hERG channel were dislodged from tissue culture flasks and dispensed into PPC plates. […] During the recording, background leak currents were estimated by a 100 ms step to -80 mV from an initial holding potential of -70 mV and subtracted from the subsequent current measurement. The campaign was conducted in two phases using slight differences in recording protocol. […]
Screen size: about 310,000 compounds; about 14,000 (4.5%) showed an effect of 50% or more. The effect is printed as a negative number. Shown is part of a subset that was picked to be rich in strong results.
Tag: MET if measured hERG current change (%, negative = inhibition) at 10uM is not below -10%, NOT MET if it is.

Record excerpt, results attached:
1. Cc1ccc(NC(=O)c2nnn(-c3ccc4c(c3)OCCO4)c2N)cc1 = MET
2. CCC1CCCCN1CCCNC(=O)c1ccc(CS(=O)(=O)c2ccc(Br)cc2)o1 (stereo not shown) = NOT MET
3. O=C(O)[C@H](Cc1ccccc1)NC(=O)N1CCOCC1 = MET

Request: Does `CCOC(=O)N1CCN(CCC(=O)Nc2ccc(OC(F)(F)F)cc2)CC1` have a reported hERG current change (%, negative = inhibition) at 10uM of at least -10%?
Response: NOT MET

Request: Determine whether this compound has hERG current change (%, negative = inhibition) at 10uM no lower than -10%: `CCOC(=O)N1CCN(CCC(=O)Nc2ccc(OC)cc2)CC1`
Response: MET

Request: Kindly determine if hERG current change (%, negative = inhibition) at 10uM recorded for `O=C(NCCc1ccc(Cl)cc1)c1nnc(Cc2ccc(Cl)cc2)o1` is above or exactly -10%.
Response: MET

Request: Tell me whether hERG current change (%, negative = inhibition) at 10uM is at least -10% here: `CCN1CCN(CCNC(=O)c2ccc(CS(=O)(=O)c3ccccc3C)o2)CC1`
Response: MET

Request: Is hERG current change (%, negative = inhibition) at 10uM for `O=C(Nc1cc(Cl)ccc1-n1cncn1)c1cc(S(=O)(=O)N2CCOCC2)ccc1F` at or above -10%?
Response: NOT MET

Request: hERG current change (%, negative = inhibition) at 10uM >= -10% for `CN1CCN(CCCNC(=O)c2ccc(CS(=O)(=O)c3ccc(Br)cc3)o2)CC1` ?
Response: NOT MET

Request: Does the reported hERG current change (%, negative = inhibition) at 10uM for `Cc1cccc(NC(=S)N(C)Cc2cn(C)c3ccccc23)c1` fall at or above the -10% mark?
Response: MET

Request: Decide: is the reported value of hERG current change (%, negative = inhibition) at 10uM for `COc1cc(OC)c(C(=O)Nc2cc(Cl)ccc2-n2cncn2)cc1OC` equal to or greater than -10%?
Response: NOT MET

Request: Does the reported hERG current change (%, negative = inhibition) at 10uM for `CCOC(=O)N1CCN(CCC(=O)Nc2ccc(Br)cc2)CC1` fall at or above the -10% mark?
Response: NOT MET

Request: Given `O=C(CN1CCc2ccccc2C1)Nc1ccc(OC(F)(F)F)cc1` , state whether its hERG current change (%, negative = inhibition) at 10uM is at least -10%.
Response: MET

Request: # check: hERG current change (%, negative = inhibition) at 10uM of `O=C(NC1CCCCCC1)c1ccc(CN2CCOCC2)cc1` is greater than or equal to -10%
Response: MET

Request: Record `Cl.O=C(CN1CCOCC1)Nc1ccc(OC(F)(F)F)cc1` ; criterion: hERG current change (%, negative = inhibition) at 10uM no lower than -10%. Met?
Response: MET
